biological target: 5-hydroxytryptamine receptor 2A (Homo sapiens, UniProt P28223); test: Affinity against 5-hydroxytryptamine 2A receptor (D) labeled with [125I]DOI.
Sequence (P28223 whole entry): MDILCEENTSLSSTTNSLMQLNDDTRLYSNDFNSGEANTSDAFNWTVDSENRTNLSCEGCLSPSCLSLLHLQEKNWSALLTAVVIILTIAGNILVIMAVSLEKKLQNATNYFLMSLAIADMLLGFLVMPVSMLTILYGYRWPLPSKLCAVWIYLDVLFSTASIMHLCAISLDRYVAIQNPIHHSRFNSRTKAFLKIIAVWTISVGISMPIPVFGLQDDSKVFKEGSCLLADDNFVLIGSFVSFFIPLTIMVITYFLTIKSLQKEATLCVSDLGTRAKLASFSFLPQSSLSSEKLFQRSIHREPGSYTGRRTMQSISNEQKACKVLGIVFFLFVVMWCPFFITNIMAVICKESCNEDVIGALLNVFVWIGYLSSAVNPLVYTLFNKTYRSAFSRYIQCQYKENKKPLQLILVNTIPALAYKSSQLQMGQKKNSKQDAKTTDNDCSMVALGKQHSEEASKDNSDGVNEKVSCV
pKi: −log10 of the molar value.
Please enter TRUE where pKi is greater than or equal to 8, and FALSE where it is lower.

Query: Test whether the molecule COc1cc(CCNCc2ccc(I)cc2)c(OC)cc1Br records pKi of 8 or higher.
Result: TRUE

Query: Test whether the molecule COc1ccc2[nH]cc(CCNCc3ccccc3)c2c1 records pKi of 8 or higher.
Result: TRUE

Query: Test whether the molecule CNCCc1c[nH]c2ccc(OC)cc12 records pKi of 8 or higher.
Result: TRUE

Query: Test whether the molecule COc1ccc2[nH]cc(CCN3CCCCC3)c2c1 records pKi of 8 or higher.
Result: FALSE

Query: Test whether the molecule COc1cc(CCN)c(OC)cc1Br records pKi of 8 or higher.
Result: TRUE

* * *

experiment: Receptor selectivity [3H]- ketanserin-labeled receptors versus [125I]- DOI-labeled receptors.
Would you kindly list Ratio for each of these compounds?
Just the number.

// sample COc1cc(CCNCc2ccc(Cl)cc2)c(OC)cc1Br , its Ratio was 7

// sample COc1cc(CCNCCCCc2ccccc2)c(OC)cc1Br , its Ratio was 4

// sample COc1ccc2[nH]cc(CCNCc3ccc(I)cc3)c2c1 , its Ratio was 3

// sample CNCCc1cc(OC)c(Br)cc1OC , its Ratio was 130

// sample COc1ccc2[nH]cc(CCNCc3ccc(Br)cc3)c2c1 , its Ratio was 52

// sample COc1ccc2[nH]cc(CCNCc3ccccc3)c2c1 , its Ratio was 10

// sample COc1ccc2[nH]cc(CCNCCCCc3ccccc3)c2c1 , its Ratio was 2

// sample COc1ccc2[nH]cc(CCNCc3ccc([N+](=O)[O-])cc3)c2c1 , its Ratio was 30

// sample COc1ccc2[nH]cc(CCNCc3ccc(N)cc3)c2c1 , its Ratio was 5

// sample COc1ccc(CNCCc2cc(OC)c(Br)cc2OC)cc1 , its Ratio was 1

// sample COc1cc(CCNCc2ccc(C)cc2)c(OC)cc1Br , its Ratio was 2

// sample COc1cc(CCNCCCc2ccccc2)c(OC)cc1Br , its Ratio was 4

// sample COc1ccc2[nH]cc(CCNCc3ccc(F)cc3)c2c1 , its Ratio was 10

// sample COc1ccc(CNCCc2c[nH]c3ccc(OC)cc23)cc1 , its Ratio was 6

// sample COc1ccc2[nH]cc(CCNCc3ccc(C)cc3)c2c1 , its Ratio was 4

// sample COc1cc(CCNCc2ccccc2)c(OC)cc1Br , its Ratio was 53

// sample COc1cc(CCN(C)C)c(OC)cc1Br , its Ratio was 26

// sample COc1cc(CCNCc2ccc([N+](=O)[O-])cc2)c(OC)cc1Br , its Ratio was 5

// sample CCNCCc1cc(OC)c(Br)cc1OC , its Ratio was 8

// sample COc1cc(CCNCc2ccc(Br)cc2)c(OC)cc1Br , its Ratio was 4

// sample COc1cc(CCNCc2ccc(F)cc2)c(OC)cc1Br , its Ratio was 7

// sample COc1cc(CCN2CCCCC2)c(OC)cc1Br , its Ratio was 6

// sample COc1cc(CCNCc2ccc(N)cc2)c(OC)cc1Br , its Ratio was 3

// sample COc1ccc2[nH]cc(CCNCCCc3ccccc3)c2c1 , its Ratio was 5

// sample COc1cc(CCNCc2ccc(I)cc2)c(OC)cc1Br , its Ratio was 55

// sample COc1ccc2[nH]cc(CCNCc3ccc(Cl)cc3)c2c1 , its Ratio was 5
